Recorded measurements of GI50, one per entry
# Tested on: OVCAR-8
# protocol-description: NCI tumour cell line growth inhibition, 48 h
Active and inactive are the calls of the source. Rule as the data show it: active = GI50 up to about 1.1 µM and inactive = higher.

// below: answered compounds
Cn1cc(NC(=O)c2cc(NC(=O)CCCCCCCCC(=O)Nc3cc(C(=O)Nc4cc(C(=O)NCCC(N)N)n(C)c4)n(C)c3)cn2C)cc1C(=O)NCCC(=N)N
21.4 µM (inactive)
COc1ccc(/C=C/c2cnccn2)cc1OC
> 10 µM (inactive)
N#CC(NNC(=O)Cc1ccccc1)c1ccc(O)cc1 (configuration not stated)
> 100 µM (inactive)

Item: [N-]=[N+]=Nc1ccc(CCN2CCN(c3cccc(C(F)(F)F)c3)CC2)cc1I | GI50: > 100 µM (inactive)

Item: COc1cc(/C=N\O[Si](C)(C)C(C)(C)C)ccc1O[Si](C)(C)C(C)(C)C | GI50: 64.1 µM (inactive)

Item: COC(=O)c1c2n(c3ccccc13)C[C@H]1OC(C)(C)O[C@@H]21 | GI50: > 100 µM (inactive)

Item: COC(=O)C1C=CCC2CCCCC21N1CCCC1 (configuration not stated) | GI50: 59.4 µM (inactive)
